- EXPERIMENTAL_PROTOCOL: Solubility in water
- Format: physicochemical
- TEST_PARAMETERS: Table 7, PEGylated and sarcosine/alanine substitution peptides
Square brackets hold non-standard residues; d marks the D form. Peptide text beside a SMILES is read from it. Sar = CNCC(=O)O
READOUT: Solubility in water

Field request: Solubility in water | item: CC[C@H](C)[C@H](N)C(=O)N[C@@H](C)C(=O)N[C@@H](CC(C)C)C(=O)N[C@H](C(=O)N[C@@H](CC(C)C)C(=O)N[C@@H](CCC(=O)O)C(=O)N(C)CC(=O)N[C@H](C(=O)N[C@@H](CS)C(=O)N[C@@H](CS)C(=O)N[C@@H](CCC(N)=O)C(=O)N[C@@H](CCC(=O)O)C(=O)N(C)CC(=O)N[C@@H](C)C(=O)N[C@@H](C)C(=O)O)[C@@H](C)CC)[C@@H](C)CC [Peptide R13SarP7Sar, IALILE(Sar)ICCQE(Sar)AA] (H-IALILE[Sar]ICCQE[Sar]AA-OH)
No

Field request: Solubility in water | item: CC[C@H](C)[C@H](N)C(=O)N[C@@H](C)C(=O)N[C@@H](CC(C)C)C(=O)N[C@H](C(=O)N[C@@H](CC(C)C)C(=O)N[C@@H](CCC(=O)O)C(=O)N1CCC[C@H]1C(=O)N[C@H](C(=O)N(C)CC(=O)N[C@@H](C)C(=O)N[C@@H](CCC(N)=O)C(=O)N[C@@H](CCC(=O)O)C(=O)N[C@@H](CCCNC(=N)N)C(=O)N[C@@H](C)C(=O)N[C@@H](C)C(=O)O)[C@@H](C)CC)[C@@H](C)CC [PA-C9SarC10A] (H-IALILEPI[Sar]AQERAA-OH)
Yes

Field request: Solubility in water | item: CC[C@H](C)[C@H](N)C(=O)N[C@@H](C)C(=O)N[C@@H](CC(C)C)C(=O)N[C@H](C(=O)N[C@@H](CC(C)C)C(=O)N[C@@H](CCC(=O)O)C(=O)N1CCC[C@H]1C(=O)N[C@H](C(=O)N[C@@H](CS)C(=O)N[C@@H](CS)C(=O)N[C@@H](CCC(N)=O)C(=O)N[C@@H](CCC(=O)O)C(=O)N(C)CC(=O)N[C@@H](C)C(=O)N[C@@H](C)C(=O)NCCOCCOCCOCCOCCOCCOCCOCCOCCOCCOCCOCCOCCOCCOCCOCCOCCOCCOCCOCCOCCOCCOCCOCCOCCC(=O)O)[C@@H](C)CC)[C@@H](C)CC
Yes

Field request: Solubility in water | item: CC[C@H](C)[C@H](N)C(=O)N[C@@H](C)C(=O)N[C@@H](CC(C)C)C(=O)N[C@H](C(=O)N[C@@H](CC(C)C)C(=O)N[C@@H](C)C(=O)N1CCC[C@H]1C(=O)N[C@H](C(=O)N(C)CC(=O)N[C@@H](CS)C(=O)N[C@@H](CCC(N)=O)C(=O)N[C@@H](C)C(=O)N[C@@H](CCCNC(=N)N)C(=O)N[C@@H](C)C(=O)N[C@@H](C)C(=O)O)[C@@H](C)CC)[C@@H](C)CC [Peptide E6AE12AC9Sar] (H-IALILAPI[Sar]CQARAA-OH)
No

---

- EXPERIMENTAL_PROTOCOL: Solubility in water
- Format: physicochemical
- TEST_PARAMETERS: Table 7, PEGylated and sarcosine/alanine substitution peptides
Square brackets hold non-standard residues; d marks the D form. Peptide text beside a SMILES is read from it. Sar = CNCC(=O)O
READOUT: Solubility in water

Field request: Solubility in water | item: CC[C@H](C)[C@H](N)C(=O)N[C@@H](C)C(=O)N[C@@H](CC(C)C)C(=O)N[C@H](C(=O)N[C@@H](CC(C)C)C(=O)N[C@@H](CCC(=O)O)C(=O)N1CCC[C@H]1C(=O)N[C@H](C(=O)N(C)CC(=O)N[C@@H](CS)C(=O)N(C)CC(=O)N[C@@H](CCC(=O)O)C(=O)N[C@@H](CCCNC(=N)N)C(=O)N[C@@H](C)C(=O)N[C@@H](C)C(=O)O)[C@@H](C)CC)[C@@H](C)CC [Peptide Q11SarC9Sar] (H-IALILEPI[Sar]C[Sar]ERAA-OH)
Yes

Field request: Solubility in water | item: CC[C@H](C)[C@H](N)C(=O)N[C@@H](C)C(=O)N[C@@H](CC(C)C)C(=O)N[C@H](C(=O)N[C@@H](CC(C)C)C(=O)N[C@@H](CCC(=O)O)C(=O)N(C)CC(=O)N[C@H](C(=O)N[C@@H](CS)C(=O)N[C@@H](CS)C(=O)N[C@@H](CCC(N)=O)C(=O)N[C@@H](CCC(=O)O)C(=O)N[C@@H](CCCNC(=N)N)C(=O)N(C)CC(=O)N[C@@H](C)C(=O)O)[C@@H](C)CC)[C@@H](C)CC [Peptide A14SarP7Sar, IALILE(Sar)ICCQER(Sar)A] (H-IALILE[Sar]ICCQER[Sar]A-OH; N-terminus and C-terminus assumed)
Yes

---

- Tested on: complement activation in factor B-depleted human sera
- Type: biochemical
Square brackets hold non-standard residues; d marks the D form. Peptide text beside a SMILES is read from it. Sar = CNCC(=O)O
READOUT: Hemolysis (%)
Reply with just the number (in %).

Would you please look over these solved cases?
Field request: Hemolysis (%) | item: CC[C@H](C)[C@H](N)C(=O)N[C@@H](C)C(=O)N[C@@H](CC(C)C)C(=O)N[C@H](C(=O)N[C@@H](CC(C)C)C(=O)N[C@@H](CCC(=O)O)C(=O)N1CCC[C@H]1C(=O)N[C@H](C(=O)N[C@@H](CS)C(=O)N[C@@H](CS)C(=O)N(C)CC(=O)N[C@@H](CCC(=O)O)C(=O)N[C@@H](CCCNC(=N)N)C(=O)N[C@@H](C)C(=O)N[C@@H](C)C(=O)NCCOCCOCCOCCOCCOCCOCCOCCOCCOCCOCCOCCOCCOCCOCCOCCOCCOCCOCCOCCOCCOCCOCCOCCOCCC(=O)O)[C@@H](C)CC)[C@@H](C)CC [PA-Q11Sar-dPEG24]
12.04

Field request: Hemolysis (%) | item: CC[C@H](C)[C@H](N)C(=O)N[C@@H](C)C(=O)N[C@@H](CC(C)C)C(=O)N[C@H](C(=O)N[C@@H](CC(C)C)C(=O)N[C@@H](CCC(=O)O)C(=O)N1CCC[C@H]1C(=O)N[C@H](C(=O)N(C)CC(=O)N[C@@H](CS)C(=O)N[C@@H](CCC(N)=O)C(=O)N[C@@H](CCC(=O)O)C(=O)N[C@@H](CCCNC(=N)N)C(=O)N[C@@H](C)C(=O)N[C@@H](C)C(=O)O)[C@@H](C)CC)[C@@H](C)CC [PA-C9Sar] (H-IALILEPI[Sar]CQERAA-OH; N-terminus and C-terminus assumed)
5.63

Field request: Hemolysis (%) | item: CC[C@H](C)[C@H](N)C(=O)N[C@@H](C)C(=O)N[C@@H](CC(C)C)C(=O)N[C@H](C(=O)N[C@@H](CC(C)C)C(=O)N(C)CC(=O)N1CCC[C@H]1C(=O)N[C@H](C(=O)N(C)CC(=O)N[C@@H](CS)C(=O)N[C@@H](CCC(N)=O)C(=O)N[C@@H](CCC(=O)O)C(=O)N[C@@H](CCCNC(=N)N)C(=O)N[C@@H](C)C(=O)N[C@@H](C)C(=O)O)[C@@H](C)CC)[C@@H](C)CC [Peptide E6SarC9Sar, IALIL(Sar)PI(Sar)CQERAA] (H-IALIL[Sar]PI[Sar]CQERAA-OH)
6.21

Now consider the entry below.
Field request: Hemolysis (%) | item: CC[C@H](C)[C@H](N)C(=O)N[C@@H](C)C(=O)N[C@@H](CC(C)C)C(=O)N[C@H](C(=O)N[C@@H](CC(C)C)C(=O)N[C@@H](C)C(=O)N1CCC[C@H]1C(=O)N[C@H](C(=O)N(C)CC(=O)N[C@@H](CS)C(=O)N[C@@H](CCC(N)=O)C(=O)N[C@@H](C)C(=O)N[C@@H](CCCNC(=N)N)C(=O)N[C@@H](C)C(=O)N[C@@H](C)C(=O)O)[C@@H](C)CC)[C@@H](C)CC [Peptide E6AE12AC9Sar] (H-IALILAPI[Sar]CQARAA-OH)
2.99
